src = patent US5624923A

- Test system: Vasopressin V1
- assaySummary: Vasopressin V1 Antagonist Activity in Conscious Rats (vasopressin vasopressor response)
- Format: in vivo, rat
- setupConditions: 10 mg/kg i.v.
// classify: if (Max. % Inhibition < 80%) Y else N

INSERT INTO results (compound, labelclass) VALUES
  ('O=C(Cc1ccccc1Cl)Nc1ccc(C(=O)N2Cc3cccn3Cc3ccccc32)cc1', 'N'),
  ('Cc1ccc(F)cc1C(=O)Nc1ccc(C(=O)N2Cc3cccn3Cc3ccccc32)cc1', 'N'),
  ('Cc1ccc(F)cc1C(=O)Nc1ccc(C(=O)N2Cc3cccn3Cc3ccccc32)c(Cl)c1', 'Y'),
  ('COc1cc(C(=O)N2Cc3cccn3Cc3ccccc32)ccc1NC(=O)c1cccc(F)c1C', 'N'),
  ('O=C(Nc1ccc(C(=O)N2Cc3cccn3Cc3sccc32)cc1)c1ccc(Cl)cc1Cl', 'Y'),
  ('Cc1ccccc1C(=O)Nc1ccc(C(=O)N2Cc3cccn3Cc3ccccc32)c(Cl)c1', 'N'),
  ('O=C(Nc1ccc(C(=O)N2Cc3cccn3Cc3ccccc32)cc1)C(O)c1ccccc1 (racemic)', 'Y');

----------
- system: Rat Kidney Medullary V2 Receptors (Rattus norvegicus, UniProt Q00788)
- Construct: Medullary tissues from rat kidneys are dissected out; from tissue; host or cells: rat kidney medulla membranes
- Sequence (Q00788 whole entry): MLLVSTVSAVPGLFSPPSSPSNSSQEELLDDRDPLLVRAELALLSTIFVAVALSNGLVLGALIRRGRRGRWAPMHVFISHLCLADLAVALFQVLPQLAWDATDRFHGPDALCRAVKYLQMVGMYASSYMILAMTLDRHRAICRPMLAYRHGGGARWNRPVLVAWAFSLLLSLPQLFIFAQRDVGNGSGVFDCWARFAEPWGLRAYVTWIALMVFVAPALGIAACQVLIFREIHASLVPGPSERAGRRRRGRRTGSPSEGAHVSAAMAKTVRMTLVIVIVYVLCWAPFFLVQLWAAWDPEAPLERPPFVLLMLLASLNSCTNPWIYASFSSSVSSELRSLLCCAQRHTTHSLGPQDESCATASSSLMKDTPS
- assaySummary: Binding Assay to Rat Kidney Medullary V2 Receptors
- setupConditions: rat kidney medulla membranes; read-out: V2 IC50
pIC50: −log10 of the molar value.
As shown below, each of these molecules has a reported pIC50 value.
testReadout: pIC50

INSERT INTO assay_data (structure, numericreadout) VALUES
  ('Cc1cccc(NC(=O)c2ccc(C(=O)N3Cc4cccn4Cc4ccccc43)cc2)c1C', 7.89),
  ('CCOc1ccccc1C(=O)Nc1ccc(C(=O)N2Cc3cccn3Cc3ccccc32)cc1', 7.11),
  ('O=C(Nc1ccc(C(=O)N2Cc3ccc(CN4CCCC4)n3Cc3ccccc32)cc1)c1ccc(Cl)cc1Cl', 7.41),
  ('Cc1ccccc1C(=O)Nc1ccc(C(=O)N2CCc3cccn3-c3ccccc32)cc1', 7.48),
  ('O=C(Nc1ccc(C(=O)N2Cc3ccnn3Cc3ccccc32)cc1)c1ccc(Cl)cc1Cl', 8.30),
  ('Cc1ccccc1NC(=O)Nc1ccc(C(=O)N2Cc3cccn3Cc3ccccc32)cc1', 7.07);

----------
- system: Human V2 Vasopressin Receptor (Homo sapiens)
- Construct: expressed in transfected cells; host or cells: mouse fibroblast cell line LV-2
- Sequence (P30518 whole entry): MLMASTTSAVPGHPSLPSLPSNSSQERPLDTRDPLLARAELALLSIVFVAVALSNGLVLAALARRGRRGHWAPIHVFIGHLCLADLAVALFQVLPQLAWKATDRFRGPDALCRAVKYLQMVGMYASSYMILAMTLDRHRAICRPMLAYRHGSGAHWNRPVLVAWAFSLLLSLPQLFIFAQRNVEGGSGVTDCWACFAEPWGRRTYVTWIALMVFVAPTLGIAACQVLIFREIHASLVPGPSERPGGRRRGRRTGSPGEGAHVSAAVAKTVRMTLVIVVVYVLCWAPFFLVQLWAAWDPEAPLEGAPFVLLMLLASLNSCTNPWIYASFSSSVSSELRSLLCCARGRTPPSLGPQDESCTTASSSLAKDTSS
- assaySummary: Binding to Membranes of Mouse Fibroblast Cell Line (LV-2) Transfected with the cDNA Expressing the Human V2 Vasopressin Receptor
- setupConditions: LV-2 cell membranes, human V2; read-out: V2 IC50 (**)
pIC50: −log10 of the molar value.
testReadout: pIC50

INSERT INTO results (structure, numericreadout) VALUES
  ('O=C(Nc1ccc(C(=O)N2CCc3cccn3-c3ccccc32)c(Cl)c1)c1ccc(Cl)cc1Cl', 7.68),
  ('O=C(Nc1ccc(C(=O)N2Cc3cccn3Cc3ccccc32)c(Cl)c1)c1c(Cl)cccc1Cl', 8.70),
  ('Cc1ccccc1C(=O)Nc1ccc(C(=O)N2Cc3ccc(CN(C)C)n3Cc3ccccc32)c(Cl)c1', 7.46),
  ('COc1cc(C(=O)N2Cc3cccn3Cc3ccccc32)ccc1NC(=O)c1ccccc1C', 8.49),
  ('COc1cc(C(=O)N2Cc3cccn3Cc3ccccc32)ccc1NC(=O)c1ccc(Cl)cc1Cl', 8.72),
  ('CC(C)COC(=O)Nc1ccc(C(=O)N2Cc3cccn3Cc3ccccc32)cc1', 7.39),
  ('COc1cc(NC(=O)c2cc(F)ccc2C)ccc1C(=O)N1Cc2cccn2Cc2ccccc21', 8.74),
  ('O=C(Nc1ccc(C(=O)N2Cc3ccnn3Cc3ccccc32)c(Cl)c1)c1ccc(Cl)cc1Cl', 8.36),
  ('O=C(Nc1ccc(C(=O)N2Cc3cccn3Cc3ccccc32)c(Cl)c1)c1ccccc1C(F)(F)F', 8.22),
  ('O=C(Nc1ccc(C(=O)N2Cc3cccn3Cc3ccccc32)c(Cl)c1)c1ccccc1Cl', 8.48),
  ('O=C(Nc1ccc(C(=O)N2Cc3cccn3Cc3ccccc32)c(Cl)c1)c1ccccc1F', 8.55),
  ('Cc1ccccc1C(=O)Nc1ccc(C(=O)N2Cc3cccn3Cc3ccccc32)c(C)c1', 8.54),
  ('Cc1ccc(F)cc1C(=O)Nc1ccc(C(=O)N2Cc3cccn3Cc3ccccc32)cc1Cl', 8.40),
  ('O=C(Nc1ccc(C(=O)N2Cc3cccn3Cc3ccccc32)c(Cl)c1)c1cccc(F)c1', 9.00),
  ('COc1cc(C(=O)N2Cc3cccn3Cc3ccccc32)ccc1NC(=O)CC(C)C', 7.51),
  ('O=C(Nc1ccc(C(=O)N2Cc3cccn3Cc3ccccc32)cc1)c1ccc(F)cc1C(F)(F)F', 8.30),
  ('Cc1ccccc1C(=O)Nc1ccc(C(=O)N2Cc3ccnn3Cc3ccccc32)c(Cl)c1', 8.49),
  ('Cc1ccc(F)cc1C(=O)Nc1ccc(C(=O)N2Cc3ccnn3Cc3ccccc32)c(Cl)c1', 8.77),
  ('O=C(Nc1ccc(C(=O)N2Cc3cccn3Cc3ccccc32)cc1)c1ccc(F)cc1Cl', 8.40),
  ('CC(=O)Oc1ccccc1C(=O)Nc1ccc(C(=O)N2Cc3cccn3Cc3ccccc32)cc1', 7.47),
  ('O=Cc1cccn1CC(=O)Nc1ccc(C(=O)N2Cc3cccn3Cc3ccccc32)cc1', 7.21),
  ('O=C(Nc1ccc(C(=O)N2Cc3cccn3Cc3ccccc32)c(Cl)c1)c1ccc(F)cc1C(F)(F)F', 8.22),
  ('O=C(Nc1ccc(C(=O)N2Cc3cccn3Cc3ccccc32)cc1)c1ccccc1O', 6.27);

----------
- system: oxytocin receptors (Rattus norvegicus, UniProt P70536)
- Construct: The uteri are dissected out, cleaned of fat and connective tissues; from tissue; host or cells: uterus of DES-treated female Sprague-Dawley rats
- assaySummary: Oxytocin Receptor Binding
- setupConditions: dose 10 μM, [3H]oxytocin
- Protocol: Oxytocin Receptor Binding Female Sprague-Dawley rats weighing approximately 200-250 g are injected intramuscularly (i.m.) with 0.3 mg/kg of body weight of diethylstilbestrol (DES). The rats are sacrificed 18 hours later under pentobarbital anesthesia. The uteri are dissected out, cleaned of fat and connective tissues and rinsed in 50 ml of normal saline. […]
As shown below, each of these compounds has a reported inhibition at 10 µM value.
testReadout: inhibition at 10 µM

INSERT INTO results (compound, result) VALUES
  ('O=C(c1ccc([N+](=O)[O-])cc1)N1Cc2ccc(C(=O)C(Cl)(Cl)Cl)n2Cc2ccccc21 [Example 449]', '14%'),
  ('CN(C)Cc1ccc2n1Cc1ccccc1N(C(=O)c1ccc(NC(=O)c3ccc(Cl)cc3Cl)cc1)C2 [Example 664]', '95%'),
  ('Cc1c(F)cccc1C(=O)Nc1ccc(C(=O)N2Cc3cccn3Cc3ccccc32)c(Cl)c1 [Example 481]', '88%'),
  ('Cc1ccc(F)cc1C(=O)Nc1ccc(C(=O)O)c(Cl)c1 [Example 419]', '28%'),
  ('O=C(Nc1ccc(C(=O)N2Cc3ccnn3Cc3ccccc32)c(Cl)c1)c1ccc(Cl)cc1Cl [Example 520]', '79%'),
  ('Cc1ccccc1C(=O)Nc1ccc(C(=O)N2Cc3ccnn3Cc3ccccc32)cc1 [Example 210]', '64%');

----------
Target chain: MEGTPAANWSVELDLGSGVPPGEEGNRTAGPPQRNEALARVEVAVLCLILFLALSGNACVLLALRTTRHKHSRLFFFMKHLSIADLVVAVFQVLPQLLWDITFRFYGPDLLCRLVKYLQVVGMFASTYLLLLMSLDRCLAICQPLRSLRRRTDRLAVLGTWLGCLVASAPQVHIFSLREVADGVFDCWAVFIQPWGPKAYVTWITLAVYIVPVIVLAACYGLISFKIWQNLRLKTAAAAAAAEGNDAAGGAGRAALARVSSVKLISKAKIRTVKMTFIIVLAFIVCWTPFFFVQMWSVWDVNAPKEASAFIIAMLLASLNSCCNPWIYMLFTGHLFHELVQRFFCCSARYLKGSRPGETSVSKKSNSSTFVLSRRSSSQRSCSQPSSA
pIC50: −log10 of the molar value.
testReadout: pIC50

INSERT INTO assay_data (molecule, numericreadout) VALUES
  ('CC(=O)OC(C(=O)Nc1ccc(C(=O)N2Cc3cccn3Cc3ccccc32)cc1)c1ccccc1 (stereo not drawn)', 5.10),
  ('COc1cc(C(=O)N2Cc3cccn3Cc3ccccc32)ccc1[N+](=O)[O-]', 5.54),
  ('O=C(Nc1ccc(C(=O)N2Cc3cccn3Cc3ccccc32)c(Cl)c1)c1ccccc1Cl', 6.33),
  ('Cc1ccccc1C(=O)Nc1ccc(C(=O)N2Cc3cccn3Cc3ccccc32)cc1Cl', 6.51),
  ('O=C(Nc1ccc(C(=O)N2Cc3cccn3Cc3ccccc32)c(Cl)c1)c1cccc(F)c1', 6.05),
  ('Cc1ccc(F)cc1C(=O)Nc1ccc(C(=O)N2Cc3cccn3Cc3ccccc32)c(Cl)c1', 6.90);

----------
As shown below, each of these molecules has a reported IC50 value.
- system: Rat Kidney Medullary V2 Receptors (Rattus norvegicus)
- Construct: Medullary tissues from rat kidneys are dissected out; from tissue; host or cells: rat kidney medulla membranes
- assaySummary: Binding Assay to Rat Kidney Medullary V2 Receptors
- setupConditions: rat kidney medulla membranes; read-out: V2 IC50
testReadout: IC50

INSERT INTO results (molecule, testreadout, result) VALUES
  ('O=C(Nc1ccc(C(=O)N2Cc3cccn3Cc3ccccc32)cc1)C1CC=CCC1 (stereo not drawn)', 'IC50', '7 nM'),
  ('O=C(Nc1ccc(C(=O)N2Cc3cccn3Cc3ccccc32)cc1)C(O)c1ccccc1 (racemic)', 'IC50', '12 nM'),
  ('Cc1cc(C(=O)N2Cc3cccn3Cc3ccccc32)ccc1NC(=O)c1ccccc1C', 'IC50', '11 nM'),
  ('COc1cc(Cl)ccc1C(=O)Nc1ccc(C(=O)N2Cc3cccn3Cc3ccccc32)cc1', 'IC50', '8 nM'),
  ('COc1ccccc1C(=O)Nc1ccc(C(=O)N2Cc3cccn3Cc3ccccc32)cc1', 'IC50', '14 nM'),
  ('CCN(CC)Cc1ccc2n1Cc1ccccc1N(C(=O)c1ccc(NC(=O)c3ccc(Cl)cc3Cl)cc1)C2', 'IC50', '13 nM'),
  ('O=C(Nc1ccc(C(=O)N2Cc3cccn3Cc3ccccc32)cc1)c1c(Cl)cccc1Cl', 'IC50', '15 nM'),
  ('O=C(Nc1ccc(C(=O)N2Cc3cccn3Cc3ccccc32)cc1)c1cc(Cl)ccc1Cl', 'IC50', '14 nM'),
  ('Cc1ccccc1C(=O)Nc1ccc(C(=O)N2Cc3ccnn3Cc3ccccc32)cc1', 'IC50', '16 nM');
